Target: PDE10A (Homo sapiens, UniProt Q9Y233)
Construct: made in house; host or cells: Sf9 insect cells (baculovirus, pVL1393)
Sequence (Q9Y233 340-1055): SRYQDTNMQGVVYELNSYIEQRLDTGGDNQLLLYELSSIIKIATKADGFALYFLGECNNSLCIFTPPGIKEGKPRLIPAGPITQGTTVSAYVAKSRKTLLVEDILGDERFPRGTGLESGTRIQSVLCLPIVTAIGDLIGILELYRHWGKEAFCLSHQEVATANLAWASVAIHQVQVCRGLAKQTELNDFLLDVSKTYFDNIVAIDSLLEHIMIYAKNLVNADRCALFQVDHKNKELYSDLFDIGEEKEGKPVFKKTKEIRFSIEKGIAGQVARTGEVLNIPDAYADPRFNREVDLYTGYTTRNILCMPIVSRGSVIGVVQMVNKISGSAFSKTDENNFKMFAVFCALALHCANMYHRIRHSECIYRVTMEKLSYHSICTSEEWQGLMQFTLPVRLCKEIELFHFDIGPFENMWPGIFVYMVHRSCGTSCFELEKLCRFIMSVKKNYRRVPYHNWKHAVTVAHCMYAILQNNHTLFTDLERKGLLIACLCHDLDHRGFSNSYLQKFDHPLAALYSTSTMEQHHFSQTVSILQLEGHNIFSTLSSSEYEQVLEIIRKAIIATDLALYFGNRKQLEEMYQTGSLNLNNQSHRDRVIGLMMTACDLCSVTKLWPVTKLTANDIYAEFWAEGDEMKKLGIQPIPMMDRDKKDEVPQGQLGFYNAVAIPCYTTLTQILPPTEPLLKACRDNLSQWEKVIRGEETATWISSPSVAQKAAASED
Experiment: Activity of inhibiting PDE10A activity ([3H]cAMP decomposition inhibiting test)
Type: biochemical
Conditions: Test compound concentration 1 μmol/L; substrate [3H]cAMP 0.2 μmol/L; read-out: [3H] cAMP decomposition inhibition rate (%)
Protocol: Activity of Inhibiting PDE10A Activity (^3H]cAMP Decomposition Inhibiting Test) PCR was performed using DNAs having base sequences described in SEQ ID NO. 1 and SEQ ID NO. 2 as primers and human kidney cDNA as a template to prepare a plasmid containing amplified fragments. The plasmid was cleaved with restriction endonucleases Pst I and Xba I to obtain a Pst I-Xba I fragment of 0.7 kb. […] The PDE activity was measured according to the method described in Methods Enzymol., vol. […]
Metric: inhibition at 1 µM

Query string: Report inhibition at 1 µM for `CCOc1ccccc1-c1ccc(-c2nc3ccc(F)cc3c(C(=O)O)c2C)cc1` tested on PDE10A (Homo sapiens, UniProt Q9Y233).
Result string: 99%

Query string: What do we get for `COc1ccc(F)cc1-c1ccc(-c2nc3ccc(F)cc3c(CO)c2C)cc1` ?
Result string: 97%

Query string: What do we get for `COc1ccccc1-c1ccc(-c2nc3ccc(F)cc3c(C(=O)O)c2C)cc1` ?
Result string: 99%

Query string: What do we get for `Cc1c(-c2ccc(-c3ccccc3-c3ccccc3)cc2)nc2ccc(F)cc2c1C` ?
Result string: 97%

Query string: What do we get for `COc1ccc(-c2ccc(-c3nc4ccc(F)cc4c(CO)c3C)cc2)c(OC)c1` ?
Result string: 68%

Query string: What do we get for `Cc1ccccc1-c1ccc(-c2nc3ccc(F)cc3c(C(=O)O)c2C)cc1` ?
Result string: 97%

Query string: What do we get for `CCOc1ccccc1-c1ccc(-c2nc3ccc(F)cc3c(CO)c2C)cc1` ?
Result string: 97%

Query string: What do we get for `Cc1c(-c2ccc(-c3ccccc3-c3ccccc3)cc2)nc2ccc(F)cc2c1CO` ?
Result string: 99%

Query string: What do we get for `Cc1c(-c2ccc(-c3ccccc3CNc3ccccc3)cc2)nc2ccc(F)cc2c1CO` ?
Result string: 90%

====

Structures can show the parent of a compound that is named as a salt.
Let's go through some pIC50 measurements on UniProt:Q9Y233 together.
# pIC50: negative log10 of molar concentration; output just the value

Query string: Report pIC50 for `Cc1c(-c2ccc(-c3ccccc3C=O)cc2)nc2ccc(F)cc2c1C(=O)O` tested on UniProt:Q9Y233.
Result string: 7.80

Query string: What do we get for `Cc1c(-c2ccc(-c3ccccc3-c3ccccc3)cc2)nc2ccc(F)cc2c1C#N` ?
Result string: 6.43

Query string: What do we get for `Cc1ccccc1-c1ccc(-c2nc3ccc(F)cc3c(C(=O)O)c2C)cc1` ?
Result string: 7.33

Query string: What do we get for `Cc1c(-c2ccc(-c3ccccc3-c3ccccc3)cc2)nc2ccc(F)cc2c1C(N)=O` ?
Result string: 7.48

Query string: What do we get for `COc1ccccc1-c1ccc(-c2nc3ccc(F)cc3c(CO)c2C)cc1` ?
Result string: 7.18

Query string: What do we get for `COc1ccccc1-c1ccc(-c2nc3ccc(F)cc3c(C(=O)O)c2C)cc1` ?
Result string: 7.96

Query string: What do we get for `Cc1c(-c2ccc(-c3ccccc3CN3CCN(c4ccccc4)CC3)cc2)nc2ccc(F)cc2c1C(=O)O` ?
Result string: 7.68

Query string: What do we get for `Cc1c(-c2ccc(-c3ccccc3-c3ccccc3)cc2)nc2ccc(F)cc2c1C(=O)O` ?
Result string: 9.05

Query string: What do we get for Cc1c(-c2ccc(-c3ccccc3CN3CCOCC3)cc2)nc2ccc(F)cc2c1CO [Compound 12, dihydrochloride] ?
Result string: 7.17

====

For each entry below, report its melting point value.

Query string: Entry under review: COc1ccccc1-c1ccc(-c2nc3ccc(F)cc3c(C(=O)O)c2C)cc1 [D] . Reported melting point?
Result string: 283 to 295 °C

Query string: What do we get for Cc1c(-c2ccc(-c3ccccc3CNc3ccccc3)cc2)nc2ccc(F)cc2c1C(=O)O [Compound N] ?
Result string: 222 to 224 °C

Query string: What do we get for Cc1c(-c2ccc(-c3ccccc3CN3CCOCC3)cc2)nc2ccc(F)cc2c1C(=O)O [M] ?
Result string: 163 to 165 °C

Query string: What do we get for `COc1ccc(F)cc1-c1ccc(-c2nc3ccc(F)cc3c(C(=O)O)c2C)cc1` ?
Result string: > 300 °C

Query string: What do we get for CCOc1ccc(-c2ccc(-c3nc4ccc(F)cc4c(CO)c3C)cc2)cc1 [Compound 5] ?
Result string: 211 to 212 °C

Query string: What do we get for CNCc1ccccc1-c1ccc(-c2nc3ccc(F)cc3c(CO)c2C)cc1 [Compound 10] ?
Result string: 193 to 195 °C

Query string: What do we get for COc1ccc(F)cc1-c1ccc(-c2nc3ccc(F)cc3c(CO)c2C)cc1 [Compound 7] ?
Result string: 202 to 203 °C

====

Counter-ions that a name gives are not always drawn.
For each entry below, report its melting point value.

Query string: Entry under review: `CCOc1ccccc1-c1ccc(-c2nc3ccc(F)cc3c(CO)c2C)cc1` . Reported melting point?
Result string: 140 to 143 °C

Query string: What do we get for `COC(=O)c1c(C)c(N2CCN(c3ccccc3OC)CC2)nc2ccc(F)cc12` ?
Result string: 128 to 129 °C

Query string: What do we get for `COC(=O)c1c(C)c(-c2ccc(-c3ccccc3-c3ccccc3)cc2)nc2ccc(F)cc12` ?
Result string: 164 to 165 °C

Query string: What do we get for Cc1c(-c2ccc(-c3ccccc3CN3CCOCC3)cc2)nc2ccc(F)cc2c1CO (as salt: hydrochloride) [Compound 12, dihydrochloride] ?
Result string: 190 to 192 °C

Query string: What do we get for `Cc1c(-c2ccc(-c3ccccc3-c3ccccc3)cc2)nc2ccc(F)cc2c1N` ?
Result string: 227 to 229 °C

Query string: What do we get for `Cc1c(-c2ccc(-c3ccccc3CN3CCN(c4ccccc4)CC3)cc2)nc2ccc(F)cc2c1C(=O)O` ?
Result string: 189 to 190 °C

Query string: What do we get for `Cc1c(-c2ccc(-c3ccccc3-c3ccccc3)cc2)nc2ccc(F)cc2c1C(N)=O` ?
Result string: 243 to 246 °C

Query string: What do we get for Cc1c(-c2ccc(-c3ccccc3CNCCO)cc2)nc2ccc(F)cc2c1CO (as salt: hydrochloride) ?
Result string: 203 to 205 °C

====

Metric: melting point

Query string: Entry under review: Cc1c(-c2ccc(-c3ccccc3C=O)cc2)nc2ccc(F)cc2c1C(=O)O [Compound J] . Reported melting point?
Result string: > 300 °C

Query string: What do we get for Cc1c(-c2ccc(-c3ccccc3CNc3ccccc3)cc2)nc2ccc(F)cc2c1CO [Compound 13] ?
Result string: 201 to 202 °C

Query string: What do we get for Cc1c(-c2ccc(-c3ccccc3-c3ccccc3)cc2)nc2ccc(F)cc2c1CO [Compound 1] ?
Result string: 121 to 123 °C

Query string: What do we get for COc1ccccc1-c1ccc(-c2nc3ccc(F)cc3c(CO)c2C)cc1 [Compound 2] ?
Result string: 178 to 179 °C

Query string: What do we get for COc1ccc(-c2ccc(-c3nc4ccc(F)cc4c(CO)c3C)cc2)c(OC)c1 [Compound 8] ?
Result string: 205 to 207 °C

Query string: What do we get for Cc1c(-c2ccc(-c3ccccc3CN3CCN(c4ccccc4)CC3)cc2)nc2ccc(F)cc2c1CO [Compound 11] ?
Result string: 154 to 156 °C

Query string: What do we get for Cc1c(-c2ccc(-c3ccccc3-c3ccccc3)cc2)nc2ccc(F)cc2c1C#N [Compound 17] ?
Result string: 153 to 155 °C

Query string: What do we get for Cc1c(-c2ccc(-c3ccccc3-c3ccccc3)cc2)nc2ccc(F)cc2c1C [Compound 18] ?
Result string: 194 to 195 °C

====

biological target: PDE10A (Homo sapiens); construct: made in house; host or cells: Sf9 insect cells (baculovirus, pVL1393); test: Activity of inhibiting PDE10A activity ([3H]cAMP decomposition inhibiting test); format: biochemical; details: Test compound concentration 1 μmol/L; substrate [3H]cAMP 0.2 μmol/L; read-out: [3H] cAMP decomposition inhibition rate (%)
For each entry below, report its inhibition at 1 µM value.
Please give a number only; it is taken to be in %.

Query string: Entry under review: Cc1c(-c2ccc(-c3ccccc3CNc3ccccc3)cc2)nc2ccc(F)cc2c1C(=O)O [Compound N] . Reported inhibition at 1 µM?
Result string: 99

Query string: What do we get for Cc1c(-c2ccc(-c3ccccc3C=O)cc2)nc2ccc(F)cc2c1C(=O)O [Compound J] ?
Result string: 99

Query string: What do we get for Cc1c(-c2ccc(-c3ccccc3F)cc2)nc2ccc(F)cc2c1CO [Compound 6] ?
Result string: 91
